FYI, the data here is from the supplement of paper PMC6555819.

# Tested on: VDR homodimer (NR concentration 270 nM)
# protocol description: PBM binding z-score (relative to random genomic background probes); higher = stronger binding; sequences stand for … in GC…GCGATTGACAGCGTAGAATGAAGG
Assign PBM binding z-score to each entry below.

Recorded results for 5 sequences are shown here.
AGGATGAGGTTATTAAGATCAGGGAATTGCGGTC :: 1.97
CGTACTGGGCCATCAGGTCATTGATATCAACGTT :: 1.98
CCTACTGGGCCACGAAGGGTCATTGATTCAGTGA :: 1.53
TATACAGGGTCAAAGACCAGAGTACGAATGTCGA :: 2.81
CCTATTAGTCGACCATAAGGGCAACCGAAGCTCG :: 0.533

Give one value of PBM binding z-score per listed sequence.
1. TAGCCTCGGTCATGCGGGCCAGTATAGTGTCGGC
2. TAGCCTAGGTCATTCAGGGGCCAGTACAGAAAGC

RESULT:
[-0.697, 1.56]
